- TESTED SYSTEM: GnT-IV (Bos taurus)
- Construct: it is thought that GnT-IV from bovine small intestine is a glycoprotein having at least Asn-linked sugar chains; from tissue; host or cells: bovine small intestine (microsome fraction, Triton X-100 solubilized, purified to Sample 7)
- Sequence (O77836 93-535 limits assumed): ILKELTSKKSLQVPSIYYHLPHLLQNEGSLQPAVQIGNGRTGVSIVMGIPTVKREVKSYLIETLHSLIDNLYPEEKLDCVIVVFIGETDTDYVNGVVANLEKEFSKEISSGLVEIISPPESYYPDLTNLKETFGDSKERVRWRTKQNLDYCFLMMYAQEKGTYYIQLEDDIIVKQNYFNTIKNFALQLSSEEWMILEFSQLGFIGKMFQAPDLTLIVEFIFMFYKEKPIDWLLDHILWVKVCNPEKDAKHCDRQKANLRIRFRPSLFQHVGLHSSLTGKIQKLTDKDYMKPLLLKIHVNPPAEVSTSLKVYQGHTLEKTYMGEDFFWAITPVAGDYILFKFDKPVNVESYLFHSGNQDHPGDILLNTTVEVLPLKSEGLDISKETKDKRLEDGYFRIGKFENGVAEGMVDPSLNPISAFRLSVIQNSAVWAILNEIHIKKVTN
- PROCEDURE DETAILS: Specific assay for GnT-IV activity (pyridylaminated oligosaccharide acceptor, HPLC) with purified enzyme
- Assay type: biochemical, bovine
- MEASUREMENT CONTEXT: nucleotide 2 mM in the presence of 0.5 mM UDP-GlcNAc; nothing added = 100%
RESULT TYPE: Activity (%), Inhibition of GnT-IV by Nucleotides

O=c1ccn([C@@H]2O[C@H](CO)[C@@H](O)[C@H]2O)c(=O)[nH]1    115

A: O=c1ccn([C@@H]2O[C@H](COP(=O)(O)OP(=O)(O)OP(=O)(O)O)[C@@H](O)[C@H]2O)c(=O)[nH]1
B: O=c1ccn([C@@H]2O[C@H](COP(=O)(O)OP(=O)(O)O)[C@@H](O)[C@H]2O)c(=O)[nH]1
C: CC(=O)N[C@H]1[C@@H](OP(=O)(O)OP(=O)(O)OC[C@H]2O[C@@H](n3ccc(=O)[nH]c3=O)[C@H](O)[C@@H]2O)O[C@H](CO)[C@H](O)[C@@H]1O
Rank the items in ascending order with respect to Activity (%), Inhibition of GnT-IV by Nucleotides. Answer format: the labels, in the requested order.
B, C, A

P: Nc1ccn([C@@H]2O[C@H](COP(=O)(O)OP(=O)(O)O)[C@@H](O)[C@H]2O)c(=O)n1
Q: NCCCCCCOP(=O)(O)OP(=O)(O)OCC1OC(n2ccc(=O)[nH]c2=O)C(O)C1O (stereo not shown)
// task: argmin of Activity (%), Inhibition of GnT-IV by Nucleotides over [ P , Q ] Answer by stating the label of the chosen item.
Q

A: Cc1cn([C@H]2C[C@H](O)[C@@H](COP(=O)(O)OP(=O)(O)O)O2)c(=O)[nH]c1=O
B: O=c1ccn([C@H]2C[C@H](O)[C@@H](COP(=O)(O)OP(=O)(O)O)O2)c(=O)[nH]1
So which one has the bigger Activity (%), Inhibition of GnT-IV by Nucleotides here, A or B ? Answer by stating the label of the chosen item.
A
